# Test system: SF-295
# test-protocol: NCI tumour cell line growth inhibition, 48 h
The source made the active and inactive calls. Cut-off read from the data, not from the text of the source: active = GI50 up to about 1.1 µM and inactive = higher.
Reported GI50 values for a set of compounds
measurement-label: GI50

| compound | reading |
| --- | --- |
| C[C@]12CC/C(=N\O)C=C1CC[C@@H]1[C@@H]2CC[C@]2(C)C(=N/O)/C(=C/c3ccc([N+](=O)[O-])cc3)C[C@@H]12 | 3.56 µM (inactive) |
| CC(=O)OC1/C=C(\C)C(OC(C)=O)C/C=C(/C)CCC2C(/C=C/C1=O)C2(C)C (centres undefined) | 91 µM (inactive) |
| COc1cccc(/C=C2\C(=O)N(C(=O)Cc3ccccc3)N=C2C)c1 | > 100 µM (inactive) |
| CCOC(=O)c1oc2c(OC)ccc3c2c1CCC3 | > 100 µM (inactive) |
| COC(=O)C(CC(=O)Nc1ccc(Cl)c(Cl)c1)C(=O)C(=O)NC1C2CC3CC(C2)CC1C3 (centres undefined) | > 100 µM (inactive) |
| Cc1ccc(N2Cc3c(ccc4ccccc34)OP2(=O)Oc2ccc(Cl)c(C)c2)cc1 (centres undefined) | > 51.2 µM (inactive) |
| O=C(NNS(=O)(=O)c1ccccc1)c1cccnc1 | > 100 µM (inactive) |
| Oc1cc2c3c(c1)CCCN3CCC2 | > 10 µM (inactive) |
| NC(=O)CCC(CCC(N)=O)(CCC(N)=O)[N+](=O)[O-] | > 100 µM (inactive) |
| COc1cc(C2C(C(=O)NCc3ccccc3)=C(C)NC(C)=C2C(=O)NCc2ccccc2)ccc1O | 46 µM (inactive) |
| COC1CC(OS(=O)(=O)c2ccc([N+](=O)[O-])cc2)C(OC(=O)c2ccccc2)C(C)O1 (centres undefined) | > 100 µM (inactive) |
| CN(Cc1cnc2nc(N)nc(N)c2n1)c1ccc(C(=O)N[C@@H](CCS(=O)(=O)O)C(=O)O)cc1 | 0.0766 µM (active) |
| COc1ccc(/N=N/C(=N/NC(=O)c2cc(Cl)ccc2C(=O)c2ccccc2)c2ccc(N(CCC#N)CCC#N)cc2C)cc1 | 26.1 µM (inactive) |
| O=C1C2c3[nH]c4ccccc4c3C3CCCC3C2C(=O)N1c1ccccc1 (centres undefined) | > 100 µM (inactive) |

Data origin, for the record: ChEMBL document CHEMBL1201862
